# protocol.description: Cycloheximide Counterscreen for Small Molecule Inhibitors of Shiga Toxin
# test.conditions: cell reporter, cycloheximide protein synthesis inhibition counterscreen; active compounds read high
Among all 300,000 compounds or so, about 37,000 (12%) were called active. What follows is part of a selection rich in actives, with near analogues and random picks from the rest.
Recorded measurements of max response, one per entry
Express your answer in %, writing the number without its unit.

In the examples that follow, each entry is paired with its recorded max response.
| compound | unit.abbrev | max response |
| --- | --- | --- |
| C/C(=N\Nc1nncc2ccccc12)c1ccc(Cl)c([N+](=O)[O-])c1 | % | 17.3 |
| COc1ccc(F)cc1C(=O)C1CCCN(C(=O)CCc2ccccn2)C1 (stereo unspecified) | % | 7.94 |
| CC1=NN(c2ccccc2)C(=O)C1C(=O)c1ccc([N+](=O)[O-])cc1 (stereo unspecified) | % | 20.6 |
| Cc1ccc2cc(C)c(N3CCC(C)CC3)nc2c1 | % | 23.2 |
| Cc1nc2ccccc2c(=O)n1NC(=O)c1ccc(Cl)c([N+](=O)[O-])c1 | % | -5.07 |

Documented max response of O=c1[nH]n(-c2ccc([N+](=O)[O-])cc2)c(=O)c2ccccc12 : -2.65

Documented max response of O=S(=O)(Nc1ccc2cn[nH]c2c1)c1ccccc1 : 5.04

Documented max response of CC(CC(=O)O)C(=O)c1ccc(Cl)c([N+](=O)[O-])c1 (stereo unspecified) : -0.656

---

Recorded measurements of max response, one per entry
# protocol.description: Cycloheximide Counterscreen for Small Molecule Inhibitors of Shiga Toxin
# test.conditions: cell reporter, cycloheximide protein synthesis inhibition counterscreen; active compounds read high
In all, about 300,000 compounds went through this assay and about 37,000 (12%) were called active. This is one part of a sample in which actives are shown more often than they occur.
Express your answer in %, writing the number without its unit.

In the examples that follow, each entry is paired with its recorded max response.
| molecule | max response (%) |
| --- | --- |
| CC(=O)c1cc(C#N)c(SCC(=O)C(C)(C)C)nc1C | 55.2 |
| O=C(CN1C(=O)COc2ccc(Cl)cc21)N1CCOCC1 | -0.636 |
| O=C(CN1CCCCCC1)Nc1c(Cl)cc(Cl)cc1Cl | 21.3 |
| CC(=O)c1cc(C#N)c(N2CCCCC2)nc1C | 2.13 |
| CC(=O)NS(=O)(=O)c1ccc(N/C(N)=N/c2nc(C)cc(C)n2)cc1 | -0.472 |
| CCCCn1ccnc1C(=O)c1cccc(S(=O)(=O)N2c3ccccc3CC2C)c1 (centres undefined) | -2.53 |
| CC(=O)c1cc(C#N)c(SCC(=O)Nc2nccs2)nc1C | 24.6 |
| CCCCNC(=O)CN1C(=O)NC(Cc2ccccc2)(Cc2ccccc2)C1=O | -4.58 |

Documented max response of O=C(CN1CCOCC1)Nc1c(Cl)cc(Cl)cc1Cl : -2.9

Documented max response of O=C(CN1CCCCCC1)Nc1ccc(Cl)cc1F : 8.65

Documented max response of CCOc1ccc(CN(C)C(=O)c2ccc(=O)[nH]c2)cc1 : -4.67

Documented max response of Cc1cc(C(F)(F)F)nc(SCC(=O)Nc2nccs2)n1 : -1.23

Documented max response of COc1ccc(N(C(=O)c2cccnc2)S(=O)(=O)c2ccc(OC)c(OC)c2)cc1 : 1.15

Documented max response of COc1ccc(OC)c(NC(=O)c2cccc(S(=O)(=O)N3CCN(C(C)=O)CC3)c2)c1 : -2.4

Documented max response of Nc1ccn(C2CC(O)C(CO)O2)c(=O)n1 (centres undefined) : -1.51

Documented max response of Cc1cc(-n2cnc(-c3cn(C)nc3C)n2)no1 : 21.3

Documented max response of COc1ccc(CNC(=O)c2c[nH]c3c(OC)cc(OC)cc3c2=O)cc1 : 2.74

---

# protocol.description: Cycloheximide Counterscreen for Small Molecule Inhibitors of Shiga Toxin
# test.conditions: cell reporter, cycloheximide protein synthesis inhibition counterscreen; active compounds read high
Out of some 300,000 compounds screened, about 37,000 (12%) were called active. The full list was thinned out, with actives kept by preference.
quantity.kind: max response (%)
Express your answer in %, writing the number without its unit.

| compound | max response [%] |
| --- | --- |
| O=C(C[n+]1ccccc1)N/N=C/c1ccc(O)cc1 | -3.62 |

Next compound, please.
Documented max response of O=C(CCCc1ccccc1)NCc1ccccc1 : 28.4

---

# protocol.description: Cycloheximide Counterscreen for Small Molecule Inhibitors of Shiga Toxin; also: read at 38.3 µM for the half of the compounds with a filed dose; 0% is about no effect
# test.conditions: cell reporter, cycloheximide protein synthesis inhibition counterscreen; active compounds read high
In all, about 300,000 compounds went through this assay and about 37,000 (12%) were called active. The full list was thinned out, with actives kept by preference.
quantity.kind: max response (%)
Express your answer in %, writing the number without its unit.

In the examples that follow, each entry is paired with its recorded max response.
| compound | max response, % |
| --- | --- |
| Cc1ccc(Nc2nc(N)nc(CN3CCN(Cc4ccccc4)CC3)n2)cc1Cl | -3.89 |
| Cc1ccccc1Nc1nc(N)nc(CSc2ccccc2)n1 | 67 |
| CC(=O)N/C(=C/c1ccc(OC(F)F)cc1)C(=O)O | 1.24 |

Documented max response of CC(C)C(OC(=O)c1cccs1)C(=O)NC1CCCCC1 (configuration not stated) : -1.99

Documented max response of CCSCc1nc(N)nc(NCCc2ccccc2)n1 : 12.6

Documented max response of CC(C)c1cc(C(=O)O)n[nH]1 : 10.8

Documented max response of O=C(NC1CCCC1)c1ccc(Br)s1 : 19.5

Documented max response of Cc1ccc(C(=O)OCc2nc(N)nc(Nc3ccccc3C)n2)cc1 : -0.878

---

# protocol.description: Cycloheximide Counterscreen for Small Molecule Inhibitors of Shiga Toxin; also: read at 38.3 µM for the half of the compounds with a filed dose; 0% is about no effect
# test.conditions: cell reporter, cycloheximide protein synthesis inhibition counterscreen; active compounds read high
Among all 300,000 compounds or so, about 37,000 (12%) were called active. Only a selection was taken, and actives are over-represented in it overall.
quantity.kind: max response (%)
Express your answer in %, writing the number without its unit.

| smiles | unit.abbrev | max response |
| --- | --- | --- |
| CCOc1ccccc1NC(=O)CCS(=O)(=O)c1cccc2nsnc12 | % | -6.23 |
| COc1cccc(C(=O)CC(=O)C(=O)Nc2ccc([N+](=O)[O-])cc2C)c1 | % | -0.608 |
| O=C(NC1CCN(C(=S)Nc2ccc(Cl)cc2)CC1)C1CCCCC1 | % | -3.84 |

Documented max response of CCCCC(=O)Nc1nnc(S(=O)(=O)N(C)Cc2ccco2)s1 : 12

Documented max response of COc1cccc(CNC(=O)CCCC(=O)Nc2cccc([N+](=O)[O-])c2)c1 : -3.22

Documented max response of COC(=O)c1c(NC(=O)C(=O)N2CCCCC2)sc2c1CC(C)(C)OC2 : -2.72

---

# protocol.description: Cycloheximide Counterscreen for Small Molecule Inhibitors of Shiga Toxin; also: read at 38.3 µM for the half of the compounds with a filed dose; 0% is about no effect
# test.conditions: cell reporter, cycloheximide protein synthesis inhibition counterscreen; active compounds read high
In all, about 300,000 compounds went through this assay and about 37,000 (12%) were called active. Many of the other results were omitted from the sample, so actives are more common in it than they were.
Recorded measurements of max response, one per entry
Express your answer in %, writing the number without its unit.

| compound | quantity.kind | unit.abbrev | reported.result |
| --- | --- | --- | --- |
| O=C(Nc1ccc([N+](=O)[O-])cc1)C1CC12CCC2 (stereo unspecified) | max response | % | 21.8 |
| O=C(CN1C(=O)NC2(CCCCC2)C1=O)NCCc1c[nH]c2ccccc12 | max response | % | -0.529 |
| Cc1nc(COc2cc3oc(=O)cc(C)c3cc2Cl)cs1 | max response | % | 5.56 |
| COc1ccc(NC(=O)C(C)SCc2ccccc2)cc1 (stereo unspecified) | max response | % | 23 |
| CN1C(=O)/C(=C/C=C2\SCCN2C)OC1=S | max response | % | 37.4 |
| COc1ccccc1CCNS(=O)(=O)c1cc2c3c(c1)C(C)C(=O)N3CCC2 (stereo unspecified) | max response | % | 4.12 |

Documented max response of O=C(Nc1ccc([N+](=O)[O-])cc1)C1(c2ccccc2)CCOCC1 : -3.32

Documented max response of O=C(Nc1ccc(Cl)cc1)C1c2cccc[n+]2CC(=O)N1Cc1ccc2c(c1)OCO2 (stereo unspecified) : 17.1

Documented max response of Cc1cccc(NC(=O)C(C)N2C(=O)C3C4CC(C(Br)C4Br)C3C2=O)c1 (stereo unspecified) : -1.4

Documented max response of O=C(Nc1ccc(F)cc1)C1CCN(C(=O)c2ccc([N+](=O)[O-])cc2)CC1 : 3.26

Documented max response of Cc1ccc(Cn2cc(C(=O)NN)c(=O)c3ccc(F)cc32)cc1 : -3.85

---

# protocol.description: Cycloheximide Counterscreen for Small Molecule Inhibitors of Shiga Toxin; also: read at 38.3 µM for the half of the compounds with a filed dose; 0% is about no effect
# test.conditions: cell reporter, cycloheximide protein synthesis inhibition counterscreen
The whole screen tested about 300,000 compounds, of which about 37,000 (12%) were called active. Cut-off read from the data, not from the text of the source: active = max response mostly above about 13% (no sharp cut-off); inactive = mostly below about 14%. Many of the other results were omitted from the sample, so actives are more common in it than they were.
Pick from TRUE = active, FALSE = inactive when you respond.

| compound | assigned.label |
| --- | --- |
| Cn1c(=O)n(C)c2cc(S(=O)(=O)Nc3ccc(F)cc3)ccc21 | FALSE |
| COc1ccc(N(CC(=O)NC(C)(C)C)C(=O)c2ccco2)cc1 | FALSE |
| Cc1c(-c2ccccc2)n[nH]c1C(=O)N=Nc1c(O)[nH]c2ccccc12 | FALSE |
| CS(=O)(=O)N1CCN(C(=O)Cc2ccccc2)CC1 | FALSE |
| O=[N+]([O-])c1cc(C(F)(F)F)ccc1NN=C1CCCC1 | FALSE |
| Cc1cc(N2C(=O)C(O)=C(C(=O)c3ccc(C)o3)C2c2ccc(OCc3ccccc3)cc2)no1 (stereo unspecified) | FALSE |

Input: So what was the verdict on CCOCCCNC(=O)c1c[nH]c2cc(C)ccc2c1=O in this test?
Output: TRUE

Input: So what was the verdict on CO/N=C/CC(=O)c1ccc(OC)cc1 in this test?
Output: TRUE

Input: So what was the verdict on CCc1cccc2c(=O)c(C(=O)NCCCOC)c[nH]c12 in this test?
Output: FALSE

Input: So what was the verdict on COc1ccc(C(=O)CC2C(=O)N(C)C(=O)N(C)C2=O)cc1 in this test?
Output: FALSE

Input: So what was the verdict on CCc1ccccc1NC(=S)Nc1cc(OC)c(NC(=O)C(C)C)cc1OC in this test?
Output: FALSE
